Molecular target: T1, cynomolgus monkey MerTK (cynomolgus monkey, UniProt A0A2K5V1H9 32-505)
T1 construct: Soluble analyte in SPR; also called Cyno MerTK
T1 sequence: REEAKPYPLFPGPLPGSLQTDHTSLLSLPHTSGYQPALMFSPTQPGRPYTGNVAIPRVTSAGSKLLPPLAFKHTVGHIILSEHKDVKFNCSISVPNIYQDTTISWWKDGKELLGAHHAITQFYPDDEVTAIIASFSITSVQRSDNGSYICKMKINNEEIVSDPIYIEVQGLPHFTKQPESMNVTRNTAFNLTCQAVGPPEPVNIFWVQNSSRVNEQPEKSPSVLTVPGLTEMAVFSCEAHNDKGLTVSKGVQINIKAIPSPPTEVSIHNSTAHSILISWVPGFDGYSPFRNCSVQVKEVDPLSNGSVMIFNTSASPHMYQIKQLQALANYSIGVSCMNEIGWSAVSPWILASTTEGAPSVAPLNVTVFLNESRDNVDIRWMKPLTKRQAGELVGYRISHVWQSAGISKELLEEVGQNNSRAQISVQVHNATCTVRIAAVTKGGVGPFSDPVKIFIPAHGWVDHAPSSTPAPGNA
Test: SPR BIAcore T200, Ab captured, 25C
QUANTITY MEASURED: Kd (nM)
One number for each entry, in nM.

The following binders have reported results that may help.
BINDER | Kd (nM)
Rbt9E3.FN (antibody, V domains shown, Recombinant rabbit monoclonal antibody, Expi293, protein A purified) VH: QSVEESGGRLVTPGTPLTLTCTVSGFSLSSNAMSWVRQAPGKGLEWIGIISSSGSTYSASWAKGRFTISKTSTTMDLKITSPTTEDTATYFCARVGFFVGYGAYDYGIIHRLDLWGQGTLVTVSS VL: AAVLTQTPSPVSAAVGGTVSISCQSSKSIYNNNWLSWYQQKPGQPPKLLIYDASDLASGVPSRFEGSGSGTEFTLTISDLECDDAATYYCAGGYSGDSDYAFGGGTEVVVK | 2.5
Rbt12H4 (antibody, V domains shown, Recombinant rabbit monoclonal antibody, Expi293, protein A purified) VH: QSVEESGGRLVTPGTPLTVTCTVSGFSLSVYGMGWVRQAPGKGLEYIGFINNVGNTYYASWAKGRFTISKTSTTVDLKITSPTTEDTATYFCAKGGGGDWGYFNIWGPGTLVTVSL VL: DVVMTQTPASVEAAVGGTVTIKCQASQSIGNALAWYQQKPGQRPKLLIYAASNLASGVPSRFAGSGSGTQFTLTISDLECADAATYYCQTYYAINRYGGAFGGGTEVVVK | 13.9

# ---- query binder ----
Ask: Supply recorded Kd for Rbt10C3 (antibody, V domains shown, Recombinant rabbit monoclonal antibody, Expi293, protein A purified) VH: QSLEESGGRLVTPGTPLTLTCTASGFSLSGYTMGWVRQAPGKGLEYIGVISSGGTTYYTNWAKGRFTISKTSTTVDLKITSPTTEDTATYFCARVAFTAYGGGGFPTLHRLDLWGQGTLVTVSS VL: AQVLIQTASSVSAAVGGTVTISCQSSESVYNNDYLAWYQQKPGQPPKLLIYSASTLASGVPSRFKGSGSGTQFTLTISDLECDDAATYYCAGGYLGNNVFGGGTEVVVK here.
Reply: 3
